# Test system: SEQID-00338 kinase activity (AMP + ATP→ADP)
# assay-name: Kinase activity of SEQID-00338 (ADP-Glo Max Assay)
# Format: biochemical
# condition: 7 μg/mL, 30 minute reaction at 30° C.
readout-label: AVG percent activity relative to purified wild-type protein (%)

molecule	reported-value
R42G: single amino acid mutant of SEQID-00338, position 42 (protein, listed as Saccharomyces cerevisiae, source: /note="strain ATCC 204508 / S288c") MSSSESIRMVLIGPPGAGKGTQAPNLQERFHAAHLATGDMLGSQIAKGTQLGLEAKKIMDQGGLVSDDIMVNMIKDELTNNPACKNGFILDGFPRTIPQAEKLDQMLKEQGTPLEKAIELKVDDELLVARITGRLIHPASGRSYHKIFNPPKEDMKDDVTGEALVQRSDDNADALKKRLAAYHAQTEPIVDFYKKTGIWAGVDASQPPATVWADILNKLGKD	1.2

All figures here come from patent US20160228506A1.
